Origin of the recorded values: paper PMC9406419

Target: intracellular arginase in human primary hepatocytes
Test: Liver arginase inhibition assay in human primary hepatocytes (urea in supernatant)
Assay type: cell-based
Settings: 24 h incubation, 5 mM L-arginine
Readout name: pIC50
Quick note: pIC50 means taking -log10 of the concentration in moles per liter.

Request: Quick one: pIC50 of "CN(C)C[C@@H]1CC[C@@H](CCB(O)O)C[C@]1(N)C(=O)O" ?
Response: 4.85
